B1: RAD51 (parent)
chain: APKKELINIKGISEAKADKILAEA

variants of: B1; test: protein stability index of a GFP-peptide fusion (GPS, HEK-293T) (PSI 1-6); higher = more stable; settings: c terminus: a fixed tail appended;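 note: lentivirally expressed fusions sorted by FACS into six bins by GFP to DsRed ratio, PSI derived from sequencing read proportions per bin multiplied by bin number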
Endpoint: protein stability index

APKKELINIKGISEAKAGKILAEA [D18G]: 4.16
APWKELINIKGISEAKADKILAEA [K3W]: 3.81
APKKELIMIKGISEAKADKILAEA [N8M]: 4.17
EPKKELINIKGISEAKADKILAEA [A1E]: 5.23
APKPELINIKGISEAKADKILAEA [K4P]: 5.05
APKKELIEIKGISEAKADKILAEA [N8E]: 5.07
APKKELINIKGISEAAADKILAEA [K16A]: 4.47
APKKELIKIKGISEAKADKILAEA [N8K]: 4.13
APKKELINIKMISEAKADKILAEA [G11M]: 3.98
APKKELINIKGISERKADKILAEA [A15R]: 4.4
APKKELINIKGIEEAKADKILAEA [S13E]: 5.23
APKKELINIKQISEAKADKILAEA [G11Q]: 4.72
APKKELINIKGISEAKADDILAEA [K19D]: 4.98
APKKELINISGISEAKADKILAEA [K10S]: 5.35
APKKELINIKGWSEAKADKILAEA [I12W]: 4.36
APKKELINIKGISEDKADKILAEA [A15D]: 4.64
APKKTLINIKGISEAKADKILAEA [E5T]: 3.85
APKKELINIKGISEAKADKIAAEA [L21A]: 4.91
APKKELINIEGISEAKADKILAEA [K10E]: 5.1
APKKELINIKGISEAIADKILAEA [K16I]: 3.8
APKKELINIKGISEAKADKIVAEA [L21V]: 4.79
APKKELINIKGIHEAKADKILAEA [S13H]: 5.38

Source listed as the supplement of paper PMC10567573.
